Hey, just so you know, these numbers are from PubChem BioAssay.

Test: E. coli growth modulation, two-sided OD650, primary screen, E. coli filamentation project, strain DRC41, 24 h (AID 1093);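 also: MC1000 strain lacking acrAB efflux and sulA so SOS filamentation is blocked; test concentration not given here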
Details: OD650, 24 h, higher = more signal, called active from +8 up or from −8 down
Calls of active or inactive are those of the source.
Measurement kind: z-score

Example entries and their recorded answers appear below.
O=C1c2ccccc2[C@](Cc2ccccc2I)(C(=O)NCCN2CCOCC2)[C@H](c2ccc(CO)cc2)N1C1CCCCC1 :: 1.09 (inactive)
COc1ccc([Si](C)(C)[C@H]2[C@H](CC(=O)N3Cc4ccccc4C[C@H]3CO)O[C@@]3(C(=O)N(Cc4cccc(N5CCC5=O)c4)c4ccccc43)[C@@H]2C)cc1 :: 0.192 (inactive)
CCOC(=O)C[C@H]1[C@H](OC(=O)c2cc3ccccc3oc2=O)[C@@H](NC(=O)c2ccccc2)c2cc(OCCCO)ccc2N1C(=O)c1ccc2ccccc2n1 :: 0.368 (inactive)
CCCCCN1CC=CC23O[C@@H]4/C=C\CCC(C)OC(=O)C4[C@H]2C(=O)N(C(C)CO)[C@@H]3C1=O (stereo partly drawn) :: 0.123 (inactive)
C=CCNC(=O)[C@H]1[C@@H]2C(=O)O[C@@H](c3ccccc3)[C@@H](c3ccccc3)N2[C@@H](c2ccccc2OCCO)[C@]12C(=O)Nc1ccc(C#CCC(C(=O)OC)C(=O)OC)cc12 :: 0.587 (inactive)
COc1ccc(-c2cc3c(c(-c4ccc(Oc5ccccc5)cc4)n2)[Si](C(C)C)(C(C)C)OC3)cn1 :: -0.984 (inactive)
COC(=O)[C@@]1(Cc2ccc(OC)cc2)[C@H]2c3cc(C(=O)N4CCCC4)n(Cc4ccc(C)c(F)c4F)c3C[C@H]2CN1C(=O)c1ccccc1 :: 0.107 (inactive)
COc1cc2c(cc1OC)CN(C(=O)[C@H]1[C@@H]3C(=O)O[C@@H](c4ccccc4)[C@@H](c4ccccc4)N3[C@@H](c3ccc(O)cc3)[C@]13C(=O)Nc1ccccc13)CC2 :: -0.204 (inactive)

Return z-score for the following molecule: CC(C)[Si](C#Cc1ccc(Oc2ccccc2)cc1)(O[Si](C#Cc1ccc(Oc2ccccc2)cc1)(C(C)C)C(C)C)C(C)C
1.06 (inactive)

###

Biological target: Torsin-1A (Homo sapiens)
Test: torsin A binders from cell lysate, primary screen, small-molecule microarray, wild-type, 635/667 nm (AID 1149)
Details: COS7 hTOR1A-WT lysate, 635 nm fluorescence, higher = more signal
Measurement kind: composite z-score
Hey, just send me the number, nothing else.

Example molecules with recorded composite z-score:
O=C1O[C@@H](c2ccccc2)[C@@H](c2ccccc2)N2[C@@H](c3ccccc3OCCO)[C@]3(C(=O)Nc4ccc(C#CC5=CCCCC5)cc43)[C@@H](C(=O)N3CCCCCCC3)[C@H]12 :: 2.81
O=C(OCc1ccccc1)C1=CCC2c3[nH]c4ccccc4c3C(=O)C1N2S(=O)(=O)c1ccccc1[N+](=O)[O-] (stereo unspecified) :: 0.498
C=CCOC(=O)[C@H]1[C@@H]2C(=O)O[C@@H](c3ccccc3)[C@@H](c3ccccc3)N2[C@@H](c2ccc(OCCOC(=O)[C@@H]3C[C@@H]4C(=O)N[C@@H](CCCCNC(C)=O)C(=O)N4[C@@H]3c3ccc(O)cc3)cc2)[C@]12C(=O)Nc1ccccc12 :: 0.665

Give composite z-score only, for CCC[C@@H]1C[C@@]1(CCC)[C@@H](NC(=O)c1ccccc1)c1cccc(Cl)c1 , using Torsin-1A (Homo sapiens) data.
0.0875

Look up Torsin-1A (Homo sapiens) data: composite z-score of C=CC[C@@]12N=C(c3ccc(OCCCO)cc3)O[C@@H]1c1ccccc1N(C)C2=O , then report it.
-0.0951

Given CCOC(=O)C[C@H]1[C@H](OC(=O)c2ccc(-c3ccccc3)cc2)[C@@H](NC(=O)Cc2ccc(OC)cc2)c2cc(OCCCO)ccc2N1C(=O)c1ccccc1 , report its composite z-score on Torsin-1A (Homo sapiens).
-0.36
